system: PRP4; conditions: concentration: 1 μM, replicates: in singlicate; n = 1
Hi! Just check whether %Inh is below 10%. Below gives Criterion met, equal or above gives Criterion not met.

INSERT INTO measurements (compound, label_value) VALUES
  ('Fc1cccc(COc2ccc(Nc3ncnc4cc[nH]c34)cc2Cl)c1', 'Criterion not met'),
  ('CN1c2ccc(-c3ccc(C(=O)NCCO)cc3)cc2-c2[nH]ncc2S1(=O)=O', 'Criterion met'),
  ('COc1ccc(-c2oc3ncnc(N)c3c2-c2ccc(OC)cc2)cc1', 'Criterion not met'),
  ('FC(F)(F)c1cc(Nc2nccc(-c3c(-c4ccc(Cl)cc4)nn4ncccc34)n2)ccc1Cl', 'Criterion not met'),
  ('CNc1nccc(-c2c(-c3ccc(F)cc3)ncn2CCCN2CCOCC2)n1', 'Criterion met'),
  ('O=C(Nc1ccccc1F)NC1CCN(c2ccnc(Nc3ccc(F)cc3)n2)C1 (stereo not drawn)', 'Criterion not met'),
  ('c1ccc(-c2ccc3c(-c4ccnc(Nc5ccc6c(c5)OCCO6)n4)cnn3n2)cc1', 'Criterion not met'),
  ('COC(=O)c1cccc(NC(=O)NCCNc2ccnc(Nc3ccc(F)cc3)n2)c1', 'Criterion not met'),
  ('C[C@@H]1CCN(C(=O)CO)C[C@@H]1N(C)c1ncnc2[nH]ccc12', 'Criterion met'),
  ('Cc1cccc(-c2nc(Nc3ccc4[nH]nnc4c3)c3ccccc3n2)n1', 'Criterion met'),
  ('N#Cc1ccc(Oc2ccc(Nc3ncnc4cc[nH]c34)cc2Cl)cc1', 'Criterion met'),
  ('Clc1ccc(-c2cc(-c3c[nH]nc3-c3ccccn3)ccn2)cc1', 'Criterion met'),
  ('CS(=O)(=O)CCNCc1ccc(-c2ccc3ncnc(Nc4ccc(OCc5ccccc5)c(Cl)c4)c3c2)o1.Cl', 'Criterion not met'),
  ('Cl.c1ccc(Cn2ccc3cc(Nc4ncnc5ccccc45)ccc32)cc1', 'Criterion met'),
  ('Nc1nc(-c2ccc3c(N)n[nH]c3c2)cc(N2CCC[C@@H](C(=O)Nc3ccccc3)C2)n1.O=C(O)C(F)(F)F.O=C(O)C(F)(F)F', 'Criterion not met'),
  ('CSc1nn2c(=O)cc(N3CCOCC3)nc2n1Cc1cccc(Cl)c1Cl', 'Criterion met'),
  ('O=C(NCCCN1CCCC1=O)c1cnc(NCc2cc(Cl)ccc2Cl)nc1NC1CCNCC1', 'Criterion met'),
  ('CC(=O)Nc1n[nH]c2ncc(-c3ccccc3)cc12', 'Criterion met');

----------
test system: CDK8; conditions: concentration: 1 μM, replicates: in singlicate; n = 1
ENDPOINT: %Inh (%)

INSERT INTO measurements (smiles_code, endpoint, measurement) VALUES
  ('Nc1nc(-c2ccc3c(N)n[nH]c3c2)cc(N2CCCCC2)n1', '%Inh', 0),
  ('Cc1cccc(-c2nc(Nc3ccc4[nH]nnc4c3)c3ccccc3n2)n1', '%Inh', 30),
  ('CN1c2ccc(-c3ccc(C(=O)NCCO)cc3)cc2-c2[nH]ncc2S1(=O)=O', '%Inh', 0),
  ('Cl.c1ccc(Cn2ncc3cc(Nc4ncnc5ccccc45)ccc32)cc1', '%Inh', 0),
  ('COC(=O)c1c(-c2ccccc2)c2cc(Cl)ccc2c(=O)n1Cc1ccc(S(C)(=O)=O)cc1', '%Inh', 0);

----------
test system: PLK2;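 further: kd values determined as follow-up on hits from a single-replicate KINOMEscan panel screen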
pKd: −log10 of the molar value.
ENDPOINT: pKd

INSERT INTO results (smiles_code, measurement) VALUES
  ('NC(=O)c1sc(-n2cnc3ccccc32)cc1OCc1ccccc1F', 7.60);

----------
Recorded measurements of %Inh, one per entry
system: MLK3; settings: concentration: 1 μM, replicates: in singlicate; n = 1
ENDPOINT: %Inh (%)

INSERT INTO assay_data (compound, test_system, measurement) VALUES
  ('Nc1nc(-c2ccccn2)c(-c2ccnc3ccccc23)s1', 'MLK3', 0),
  ('FC(F)(F)c1ccc(-c2cc(-c3c[nH]nc3-c3ccccn3)ccn2)cc1', 'MLK3', 21),
  ('O=C(Nc1ccccc1)Nc1ccc(Oc2ccc3nccn3n2)cc1', 'MLK3', 0),
  ('CC(C)N1CCC(n2cnc(-c3ccc(F)cc3)c2-c2ccnc(N)n2)CC1', 'MLK3', 0),
  ('O=C(Nc1ccccc1F)NC1CCN(c2ccnc(Nc3ccc(F)cc3)n2)C1 (stereo not drawn)', 'MLK3', 9),
  ('Cn1cc(-c2ccc3c(c2)CCN3C(=O)Cc2cccc(C(F)(F)F)c2)c2c(N)ncnc21', 'MLK3', 8),
  ('c1ccc(-c2ccc3c(-c4ccnc(Nc5ccc6c(c5)OCCO6)n4)cnn3n2)cc1', 'MLK3', 28),
  ('Nc1n[nH]c2nnc(-c3ccccc3)cc12', 'MLK3', 0),
  ('Cl.c1ccc(Cn2ccc3cc(Nc4ncnc5ccccc45)ccc32)cc1', 'MLK3', 13);

----------
test system: HASPIN; construct: gene GSG2; settings: concentration: 1 μM, replicates: in singlicate; n = 1
ENDPOINT: %Inh

INSERT INTO results (compound, measurement) VALUES
  ('CC(=O)Nc1n[nH]c2ncc(-c3ccccc3)cc12 [SB-548492]', '42%'),
  ('O=C(c1ccc(-c2cc(-c3c[nH]nc3-c3ccccn3)ccn2)cc1)N1CCCC1 [GW792479]', '2%'),
  ('Cc1cccc(-c2nc(Nc3ccc4[nH]nnc4c3)c3ccccc3n2)n1 [GW867587]', '0%'),
  ('Cl.Cl.c1ccc(-c2cc3ccncc3cc2OC2CCNCC2)cc1 [GSK1122999]', '89%'),
  ('COC(=O)c1cccc(NC(=O)NCCNc2ccnc(Nc3ccc(F)cc3)n2)c1 [GSK1379883]', '37%');

----------
Each entry below carries its recorded %Inh.
test system: ULK3; details: concentration: 1 μM, replicates: in singlicate; n = 1
ENDPOINT: %Inh (%)

INSERT INTO assay_data (smiles_code, measurement) VALUES
  ('C[C@H]1CC[C@@H](C(=O)Nc2ccccc2)CN1c1cc(-c2ccc3c(N)n[nH]c3c2)nc(N)n1', 7),
  ('O=C(Nc1ccccc1)Nc1ccc(Oc2ccc3nccn3n2)cc1', 2),
  ('C[C@@H]1CCN(C(=O)CO)C[C@@H]1N(C)c1ncnc2[nH]ccc12', 12),
  ('CCc1nc(-c2cccc(N(C)S(=O)(=O)c3ccccc3)c2)c(-c2ccnc(Nc3ccc(N4CCN(C(C)=O)CC4)nc3)n2)s1', 9),
  ('Cl.Fc1ccccc1COc1ccc(Nc2ncnc3ccc(-c4nnc(C(F)(F)F)o4)cc23)cc1Cl', 6),
  ('O=C(Nc1n[nH]c2nc(-c3ccco3)c(Br)cc12)c1ccc(CN2CCCC2)cc1.O=C(O)[C@H](O)[C@@H](O)C(=O)O', 27),
  ('COc1cc2c(Nc3cccc(NC(=O)c4ccccc4)c3)ncnc2cc1OCCCN1CCOCC1', 24),
  ('Cl.c1ccc(Cn2ccc3cc(Nc4ncnc5ccccc45)ccc32)cc1', 9),
  ('COC(=O)c1c(-c2ccccc2)c2cc(Cl)ccc2c(=O)n1Cc1ccc(S(C)(=O)=O)cc1', 0),
  ('Nc1nc(-c2ccc3c(N)n[nH]c3c2)cc(N2CCC[C@@H](C(=O)Nc3ccccc3)C2)n1.O=C(O)C(F)(F)F.O=C(O)C(F)(F)F', 13),
  ('Nc1nc(-c2ccc3c(N)n[nH]c3c2)cc(N2CCCCC2)n1', 0);

----------
system: TRKA; construct: gene NTRK1; conditions: concentration: 1 μM, replicates: in singlicate; n = 1
// %Inh lookup, one value per entry
ENDPOINT: %Inh (%)

INSERT INTO measurements (smiles_code, units, measurement) VALUES
  ('C[C@H]1CC[C@@H](C(=O)Nc2ccccc2)CN1c1cc(-c2ccc3c(N)n[nH]c3c2)nc(N)n1', '%', 0),
  ('Fc1cccc(COc2ccc(Nc3ncnc4cc[nH]c34)cc2Cl)c1', '%', 2),
  ('Clc1ccc(-c2cc(-c3c[nH]nc3-c3ccccn3)ccn2)cc1', '%', 0),
  ('O=c1cc(N2CCOCC2)nc2n(Cc3cccc(Cl)c3)ccn12', '%', 0),
  ('COc1cc2c(Nc3cccc(NC(=O)c4ccccc4)c3)ncnc2cc1OCCCN1CCOCC1', '%', 45),
  ('Oc1ccc2ncnc(Nc3ccc(OCc4ccccc4)cc3)c2c1', '%', 0),
  ('COc1cc2ncnc(Nc3ccc(OCc4ccccc4Br)c(Cl)c3)c2cc1OC.Cl', '%', 0),
  ('CNc1nccc(-c2c(-c3ccc(F)cc3)ncn2CCCN2CCOCC2)n1', '%', 0),
  ('COc1ccc(NC(=O)c2ccc(-c3cc(-c4nnc(C)o4)ccc3C)cc2)cc1', '%', 0);

----------
tested on: ASK1; construct: gene MAP3K5; conditions: concentration: 1 μM, replicates: in singlicate; n = 1
Label true when %Inh < 9%; otherwise false.

INSERT INTO assay_data (smiles_code, label_value) VALUES
  ('Fc1ccc(-c2ncn(CCCNCc3ccccc3)c2-c2ccncc2)cc1', 'false'),
  ('CSc1nn2c(=O)cc(N3CCOCC3)nc2n1Cc1cccc(Cl)c1Cl', 'false'),
  ('Oc1ccc2ncnc(Nc3ccc(OCc4ccccc4)cc3)c2c1', 'true'),
  ('Fc1cccc(COc2ccc(Nc3ncnc4cc[nH]c34)cc2Cl)c1', 'false'),
  ('C[C@@H]1CCN(C(=O)CO)C[C@@H]1N(C)c1ncnc2[nH]ccc12', 'true'),
  ('Cl.O=S(=O)(c1cccc(F)c1)c1ccc(Nc2ncnc3cc(Br)sc23)cc1Cl', 'true'),
  ('CS(=O)(=O)CCNCc1nc(-c2ccc3ncnc(Nc4ccc(OCc5cccc(F)c5)c(Cl)c4)c3c2)cs1.Cl', 'false'),
  ('CSc1ccc(NC2=C(c3ccccc3Cl)C(=O)NC2=O)cc1', 'true');

Origin of measurements: paper PMC5540273
